Population Mitotic Cells (%) values by entry
# System: Fibroblast
# Test Method Notes: Multiplex assay against human fibroblast
# Format: toxicity, cell-based
# Setup Conditions: 12 h, 1 µM, compound concentration 1 uM, replicate 2
Numeric only. Scale: %

Please review the entries below; each comes with its answer.
O=C(Nc1cccnn1)N1CCC(=Cc2cccc(Oc3ccc(C(F)(F)F)cn3)c2)CC1
40
C=C1/C(=C\C=C2/CCC[C@]3(C)[C@@H]([C@H](C)/C=C/[C@H](C)C(C)C)CC[C@@H]23)C[C@@H](O)C[C@@H]1O
60
COc1cc(N2CCN(C)CC2)ccc1Nc1ncc2c(n1)N(C)c1ccccc1C(=O)N2C
60
CCc1cccc(CC)c1NC(=O)c1nn(C)c2c1CCc1cnc(Nc3ccc(C(=O)NC4CCN(C)CC4)cc3OC(F)(F)F)nc1-2
60
Cl.O=c1c2cccn2c2ccccc2n1CCCN1CCC(c2ccc(Cl)cc2)CC1
40

# Population Mitotic Cells (%) of `CCCS(=O)(=O)c1nc(NC2CC2)cc(-c2ccc3c(ccn3C3CC(C)(C)NC(C)(C)C3)c2)n1` = 61

# Population Mitotic Cells (%) of `CCN1CCN(Cc2ccc(Nc3ncc(F)c(-c4cc(F)c5nc(C)n(C(C)C)c5c4)n3)nc2)CC1.CS(=O)(=O)O` = 60

# Population Mitotic Cells (%) of `CN1CCN(C(=O)C(C)(C)c2ccc(C(=O)Nc3cn4cc(-c5cc(C(C)(C)C)cc(C(C)(C)C)c5)ccc4n3)cc2)CC1` = 57

# Population Mitotic Cells (%) of `O=C1N/C(=N/c2ccccc2F)S/C1=C\c1ccc(C(=O)O)cc1` = 100

# Population Mitotic Cells (%) of `COC(=N)c1nc2ccc3ncnc(Nc4ccc(OC)cc4F)c3c2s1` = 71

# Population Mitotic Cells (%) of `Cc1ccc(C(=O)Nc2cccc(C(F)(F)F)c2)cc1Nc1nc(-c2cccnc2)nc2c1cnn2C` = 50

====

Population Apoptotic (%) values by entry
# Test system: HEK-293T
# Test Method Notes: Multiplex assay against HEK293T
# Format: toxicity, cell-based
# Setup Conditions: human, 24 h, 10 µM, compound concentration 10 uM, replicate 1
Numeric only. Scale: %

Please review the entries below; each comes with its answer.
CCc1cccc(CC)c1NC(=O)c1nn(C)c2c1CCc1cnc(Nc3ccc(C(=O)NC4CCN(C)CC4)cc3OC(F)(F)F)nc1-2
74
CCN1CCN(c2ccc(Nc3cc(N(C)C(=O)Nc4c(Cl)c(OC)cc(OC)c4Cl)ncn3)cc2)CC1
19
O=C(Cc1ccc(-c2ccc(OCCN3CCOCC3)cc2)cn1)NCc1ccccc1
54
CN1CCC(=C2c3ccccc3CC(=O)c3sccc32)CC1.O=C(O)/C=C/C(=O)O [KETOTIFEN FUMARATE]
75
C=CCn1c(=O)c2cnc(Nc3ccc(N4CCN(C)CC4)cc3)nc2n1-c1cccc(C(C)(C)O)n1
21

Consider now this further compound.
# Population Apoptotic (%) of `O=C(Nc1ccc(-c2ccnc(Nc3ccc(N4CCOCC4)cc3)n2)cc1)[C@@H]1CCCN1` = 57

====

# Tested on: Fibroblast
# Test Method Notes: Incucyte cell viability with human fibroblast; further: filed as whole numbers so only -1 and 0 and 1 occur
# Assay type: toxicity, cell-based
# Setup Conditions: 18 h, 10 µM, compound concentration 10 uM, replicate number 1, timepoint 18 hours
Growth Rate values by entry
Please respond with just the number, no unit label.

Please review the entries below; each comes with its answer.
CCN1CCN(c2ccc(Nc3cc(N(C)C(=O)Nc4c(Cl)c(OC)cc(OC)c4Cl)ncn3)cc2)CC1
0
CN1CCN(c2cnc3c(C4CCN(C(=O)c5ccc(OC(F)(F)F)cc5N)CC4)ncnc3c2)CC1
0
COc1ccnc(N2CCC3(CCCN(Cc4c[nH]c5ccccc45)C3=O)CC2)n1
0
Cc1cc([C@@H](C)Nc2cccc(-c3cc(C)c(C(=O)N[C@@H](C)C(=O)O)c(C)c3)c2)ccc1Cl
1
Cl.O=c1c2cccn2c2ccccc2n1CCCN1CCC(c2ccc(Cl)cc2)CC1
0

# Growth Rate of `COc1cc(N2CCC(N3CCN(C)CC3)CC2)ccc1Nc1ncc(Cl)c(Nc2ccccc2P(C)(C)=O)n1` = 0

# Growth Rate of `CCc1cccc(CC)c1NC(=O)c1nn(C)c2c1CCc1cnc(Nc3ccc(N4CCN(C)CC4)cc3OC)nc1-2` = 0

# Growth Rate of `CO[C@@H](C)c1c(Nc2ccc([C@@H](N(C)C(=O)C3CCS(=O)(=O)CC3)C(F)(F)F)cc2)cnc2cc(Cl)nn12` = 1

# Growth Rate of `Cc1c(NC(=O)c2cc(C(N)=O)nc3cc(F)ccc23)c(C(F)(F)F)nn1Cc1ccc(C(C)(C)C)cc1` = 0

# Growth Rate of `COc1cc(OC)cc(-c2noc(N3CCN(C)C4(CCN(c5ccnc(C)c5)CC4)C3)n2)c1` = 1

====

# System: Fibroblast
# Test Method Notes: Multiplex assay against human fibroblast
# Format: toxicity, cell-based
# Setup Conditions: 48 h, 10 µM, compound concentration 10 uM, replicate 2
Population Apoptotic (%) values by entry
Lab note: write values as number then unit, every time.

Please review the entries below; each comes with its answer.
COc1cc(N2CCN(C)CC2)ccc1Nc1ncc2c(n1)N(C)c1ccccc1C(=O)N2C
100%
Cl.O=C(c1ccc(Nc2nccc(-c3cc4ccccc4s3)n2)cc1)N1CCC(N2CCCC2)CC1
50%
CCN1CCN(Cc2ccc(Nc3ncc(F)c(-c4cc(F)c5nc(C)n(C(C)C)c5c4)n3)nc2)CC1.CS(=O)(=O)O
77%

Consider now this further compound.
# Population Apoptotic (%) of `Cc1ccc(C(=O)Nc2cccc(C(F)(F)F)c2)cc1Nc1nc(-c2cccnc2)nc2c1cnn2C` = 60%

====

# System: HEK-293T
# Test Method Notes: Incucyte cell viability with HEK293T; further: filed as whole numbers so only -1 and 0 and 1 occur
# Format: toxicity, cell-based
# Setup Conditions: human, 12 h, 10 µM, compound concentration 10 uM, replicate number 2, timepoint 12 hours
Growth Rate values by entry

Please review the entries below; each comes with its answer.
O=C1NC(=O)C(c2cnc3ccccn23)=C1c1cn2c3c(cc(F)cc13)CN(C(=O)N1CCCCC1)CC2
0
CC(C)C[C@H](CO)Nc1nc(S[C@@H](C)c2ccccc2)nc2nc(N)sc12
1

# Growth Rate of `Cl.O=C([C@@H](Cc1cccc(C(F)(F)F)c1)NS(=O)(=O)c1cc(F)c2c(c1)CCNC2)N1CCCC1` = 1

# Growth Rate of `COc1ccnc(N2CCC3(CCCN(Cc4c[nH]c5ccccc45)C3=O)CC2)n1` = 0

# Growth Rate of `COc1cc2c(CCNC(C)=O)c[nH]c2cc1Cl` = 0

# Growth Rate of `CC(=O)c1c(NS(C)(=O)=O)c2cc(-c3ccc(Cl)cc3)c(-c3ccc(Cl)cc3Cl)nc2n(C)c1=O` = 1

====

Population Healthy Nuclei (%) values by entry
# Test system: U2OS
# Test Method Notes: Multiplex assay against U2OS
# Format: toxicity, cell-based
# Setup Conditions: human, 24 h, 10 µM, compound concentration 10 uM, replicate 2
Numeric only. Scale: %

O=C(Nc1ccc(-n2nc(-c3cccnc3)cc2C(F)(F)F)cn1)c1ccc(-c2ccccc2)c(F)c1
84
CCn1cc(-c2ccnc3[nH]c(-c4cccc(CN(C)C)c4)cc23)c(-c2ccc(NC(=O)N(C)C)cc2)n1
36

Consider now this further molecule.
# Population Healthy Nuclei (%) of `O=C(Cc1ccc(-c2ccc(OCCN3CCOCC3)cc2)cn1)NCc1ccccc1` = 57

====

# Tested on: U2OS
# Test Method Notes: Multiplex assay against U2OS
# Format: toxicity, cell-based
# Setup Conditions: human, 12 h, 1 µM, compound concentration 1 uM, replicate 1
Population Normal (%) values by entry
Numeric only. Scale: %

Please review the entries below; each comes with its answer.
CN[C@@H]1C[C@H]2O[C@@](C)([C@@H]1OC)n1c3ccccc3c3c4c(c5c6ccccc6n2c5c31)C(=O)NC4
95
CCCn1c(=O)c2[nH]c(-c3cnn(Cc4cccc(C(F)(F)F)c4)c3)nc2n(CC)c1=O
90

# Population Normal (%) of `CCN1CCN(Cc2ccc(Nc3ncc(F)c(-c4cc(F)c5nc(C)n(C(C)C)c5c4)n3)nc2)CC1.CS(=O)(=O)O` = 91

# Population Normal (%) of `C=CCn1c(=O)c2cnc(Nc3ccc(N4CCN(C)CC4)cc3)nc2n1-c1cccc(C(C)(C)O)n1` = 96

# Population Normal (%) of `CCn1cc(-c2ccnc3[nH]c(-c4cccc(CN(C)C)c4)cc23)c(-c2ccc(NC(=O)N(C)C)cc2)n1` = 97

# Population Normal (%) of `S=C(NCCCc1c[nH]cn1)NCCCN(Cc1ccc(Cl)c(Cl)c1)c1ccc(Br)cn1` = 90

====

# System: U2OS
# Test Method Notes: Multiplex assay against U2OS
# Type: toxicity, cell-based
# Setup Conditions: human, 12 h, 1 µM, compound concentration 1 uM, replicate 1
Population Tubulin-Different-Phenotype (%) values by entry
Numeric only. Scale: %

Please review the entries below; each comes with its answer.
CN1CCN(C(=O)C(C)(C)c2ccc(C(=O)Nc3cn4cc(-c5cc(C(C)(C)C)cc(C(C)(C)C)c5)ccc4n3)cc2)CC1
18
CN(C)C(=O)C(CCN1CCC(O)(c2ccc(Cl)cc2)CC1)(c1ccccc1)c1ccccc1.Cl [LOPERAMIDE HYDROCHLORIDE]
87
O=C1NC(=O)C(c2cnc3ccccn23)=C1c1cn2c3c(cc(F)cc13)CN(C(=O)N1CCCCC1)CC2
38

# Population Tubulin-Different-Phenotype (%) of CN1CCC(=C2c3ccccc3CC(=O)c3sccc32)CC1.O=C(O)/C=C/C(=O)O [KETOTIFEN FUMARATE] = 19

# Population Tubulin-Different-Phenotype (%) of `O=C(Cc1ccc(-c2ccc(OCCN3CCOCC3)cc2)cn1)NCc1ccccc1` = 19

# Population Tubulin-Different-Phenotype (%) of `CCNc1cc(N[C@H]2CC[C@H](O)CC2)nc(Nc2ccc3c(ccn3Cc3ccccc3)c2)n1` = 88

# Population Tubulin-Different-Phenotype (%) of `COC(=N)c1nc2ccc3ncnc(Nc4ccc(OC)cc4F)c3c2s1` = 27

# Population Tubulin-Different-Phenotype (%) of CCOC(=O)c1c(C)[nH]c2ccc3c(c12)CN1CCc2cc(OC)ccc2C1O3 (configuration not stated) = 72

# Population Tubulin-Different-Phenotype (%) of `CCCn1c(=O)c2[nH]c(-c3cnn(Cc4cccc(C(F)(F)F)c4)c3)nc2n(CC)c1=O` = 14

# Population Tubulin-Different-Phenotype (%) of `COCC(=O)NC/C=C/c1ccc2ncnc(Nc3ccc(Oc4ccc(C)nc4)c(C)c3)c2c1` = 18

# Population Tubulin-Different-Phenotype (%) of `Cn1nc(C(F)(F)F)cc1-c1cnc(N2CCc3cc(S(=O)(=O)Nc4c(F)cc(Cl)cc4F)cc(N4CCCC4=O)c32)nc1` = 10

# Population Tubulin-Different-Phenotype (%) of `CCOc1cc(C(=O)N2CCC(N3CCN(C)CC3)CC2)ccc1Nc1ncc2c(n1)N(C1CCCC1)c1ccccc1C(=O)N2C` = 69

# Population Tubulin-Different-Phenotype (%) of `CCn1c(=O)c(-c2ccc(-c3cncs3)cc2Cl)cc2cnc(Nc3ccc(N4CCN(C)CC4)cc3)nc21` = 7

# Population Tubulin-Different-Phenotype (%) of `O=C(Nc1ccc(Cl)cc1)Nc1cccc(-c2cccc(N3CCCC3)n2)c1` = 7

# Population Tubulin-Different-Phenotype (%) of `CCn1cc(-c2ccnc3[nH]c(-c4cccc(CN(C)C)c4)cc23)c(-c2ccc(NC(=O)N(C)C)cc2)n1` = 24

# Population Tubulin-Different-Phenotype (%) of COc1cc2ncnc(Nc3ccc(F)c(Cl)c3)c2cc1NC(=O)/C=C/CN1CCCCC1 [DACOMITINIB ANHYDROUS] = 45

# Population Tubulin-Different-Phenotype (%) of `CCCS(=O)(=O)c1nc(NC2CC2)cc(-c2ccc3c(ccn3C3CC(C)(C)NC(C)(C)C3)c2)n1` = 24

# Population Tubulin-Different-Phenotype (%) of `Cc1cc(C)c(S(=O)(=O)N(Cc2ccc(-c3cccc(S(C)(=O)=O)c3)cc2)Cc2ccc(C(F)(F)F)o2)c(C)c1` = 12

# Population Tubulin-Different-Phenotype (%) of `Cc1ccc(C(=O)Nc2cccc(C(F)(F)F)c2)cc1Nc1nc(-c2cccnc2)nc2c1cnn2C` = 13

# Population Tubulin-Different-Phenotype (%) of `Cl.Oc1ccc2c3c1O[C@H]1c4[nH]c5c(c4C[C@@]4(O)[C@@H](C2)N(CC2CC2)CC[C@]314)C[C@@]1(O)[C@H]2Cc3ccc(O)c4c3[C@@]1(CCN2CC1CC1)[C@H]5O4` = 14

# Population Tubulin-Different-Phenotype (%) of `COc1cc(N2CCN(C)CC2)ccc1Nc1ncc2c(n1)N(C)c1ccccc1C(=O)N2C` = 17

# Population Tubulin-Different-Phenotype (%) of `Cl.O=c1c2cccn2c2ccccc2n1CCCN1CCC(c2ccc(Cl)cc2)CC1` = 39
